test system: SNB-19 CNS; experiment: NCI-60 one-dose screen, 48 h (100 = growth as untreated, 0 = no growth, -100 = all killed); details: 10 µM
About 83,000 compounds went through this panel and 20% of them were active in at least one assay; those are over-represented in the sample as a whole. The source made the active and inactive calls. How the source made its calls: active means growth percent below 10; inactive means the rest.
compounds and their reported growth

Consider the reported growth for these compounds:
COMPOUND	RESULT
CCN(CC)CCCOCCCNc1cc(OC)cc2cccnc12	91.4% (inactive)
CN(C)c1ccc(/C=C/C=N/NC(=O)c2cc(O)c(O)c(O)c2)cc1	79.9% (inactive)
COc1cc(/C=C/C(=O)c2ccc(Cl)cc2)ccc1OS(=O)(=O)c1ccc(C)cc1	98.5% (inactive)
COc1cc(C2CC(c3ccc(Nc4ccnc5cc(Cl)ccc45)cc3)=NN2c2ccc(Cl)cc2)cc(OC)c1OC (stereo unspecified)	67.9% (inactive)

Consider now this further compound.
input: Entry "ClCCOCCn1cnc2c(Cl)nc(Cl)nc21" : reported growth = ?
output: 88.2% (inactive)

###

test system: SK-OV-3 ovarian; experiment: NCI-60 one-dose screen, 48 h (100 = growth as untreated, 0 = no growth, -100 = all killed); details: 10 µM
About 83,000 compounds went through this panel and 20% of them were active in at least one assay; those are over-represented in the sample as a whole. Activity calls are given as the source filed them. Rule for the calls: active = growth percent below 10; inactive = the rest.
READOUT: growth

Consider the reported growth for these molecules:
MOLECULE	RESULT
CN(C)Cc1cn(-c2ncc(-c3ccc(C(F)(F)F)cc3)c(NC3CCCCCC3)n2)nn1	86.5% (inactive)
CN(C)c1ccc(Cc2ccc(N(C)C)cc2Cl)c(Cl)c1	103% (inactive)
Nc1ncn(C2OC(CO)C(O)C2O)c(=O)n1 (stereo not given)	12.3% (inactive)
O=C(Nc1cccc(-n2cc(-c3ccncc3)c(-c3ccc(O)c(Cl)c3)n2)c1)Nc1ccc(Cl)c(Cl)c1	19% (inactive)
CC(=O)[C@H]1CC[C@H]2[C@@H]3CCC4=CC(=O)C=C[C@]4(C)[C@H]3CC[C@]12C	104% (inactive)
Cc1ccc(-c2nc(/C=C3/C(=O)N(C)c4ccc(F)cc43)c3ccccn23)cc1	105% (inactive)

input: Entry "COc1cc(Cl)cc(-c2nn(-c3cccc(NC(=O)c4ccc(N5CCOCC5)c(C(F)(F)F)c4)c3)cc2-c2ccncc2)c1" : reported growth = ?
output: 75.7% (inactive)

input: Proceed to "c1ccc(CP(Cc2ccccc2)c2ccccc2)cc1"
output: 100% (inactive)

input: Proceed to "Oc1[nH]c2ccc(Cl)cc2c1/C=c1/ccc2c(c1)N=C(c1cc(F)cc(F)c1)N=2"
output: 68% (inactive)

input: Proceed to "COc1ccccc1/C=C/C(=O)c1ccccc1"
output: 118% (inactive)

###

tested on: SK-MEL-2 melanoma; assay: NCI-60 one-dose screen, 48 h (100 = growth as untreated, 0 = no growth, -100 = all killed); conditions: 10 µM
Compounds without any hit were thinned out: in the full panel of roughly 83,000, 20% have a hit.
READOUT: growth (%)
Express it in %; write the number only.

Consider the reported growth for these molecules:
MOLECULE	UNIT ABBREV	growth
COc1ccccc1CNCCCN1C(=O)c2ccc3c4c(ccc(c24)C1=O)C(=O)N(CCCN)C3=O	%	-57.3
CCCCC(CCCCCC(CCCC)NCc1ccc2c(c1)OCO2)NCc1ccc2c(c1)OCO2 (stereo not given)	%	-87.2
COc1ccc(Cl)cc1-n1nnc(-c2nc3ccccc3[nH]2)c1N	%	93.2
O=C1/C(=C\c2ccccc2)CN(C(=O)c2ccccc2F)C/C1=C\c1ccccc1	%	54.8
Cc1cn(C2CCCCO2)c(=O)nc1NO (stereo not given)	%	120
O=C1c2ccc3c4c(ccc(c24)C(=O)N1CCNCc1ccccc1)C(=O)N(CCNCc1ccccc1)C3=O	%	119
C=C(C(=O)c1ccccc1)C(NC(C)(C)C)c1ccccc1 (stereo not given)	%	-13.9
CCCCCCN1C(=O)C2=C(c3ccc(Cl)cc3)Nc3c(c(C)nn3-c3ccccc3)C2c2ccccc21 (stereo not given)	%	91.1
CC(=O)OCc1cc(-c2nc3ccccc3[nH]c2=O)nn1-c1ccc(Cl)cc1	%	100

input: Entry "Cc1nc2oc3ccccc3c(=O)c2cc1C(=O)NCc1ccccc1" : reported growth = ?
output: 9.34

Hello, the source for this data is PubChem BioAssay (NCI), in case you need it.
